B1: SH3 and PX domain-containing protein 2B, residues 155 to 209; numbered along this chain, A1X283 (parent)
chain: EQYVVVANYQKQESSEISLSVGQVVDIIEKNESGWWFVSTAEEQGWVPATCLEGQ

variants of: B1; experiment: abundance fitness (aPCA) (normalised: wild type 0, dead -1); higher = more abundant; growth selection in yeast, the domain comes from the species named; details: Homo sapiens
METRIC: abundance fitness
Form rule: numeric answer, no unit written next to it.

// below: answered variants
-- ask Look up abundance fitness of N31V and report it.
-- reply -0.158

-- ask Supply abundance fitness value. Item: Q12D
-- reply -0.241

-- ask Assign abundance fitness to the following record: E1D
-- reply -0.108

-- ask For the variant Q44Y , give its reported abundance fitness.
-- reply -0.376

More entries:
-- ask Retrieve abundance fitness measured for S20V and print it.
-- reply -0.077

-- ask Please give measured abundance fitness of the following entry: Q12K
-- reply 0.013

-- ask Please give the documented abundance fitness of K30L
-- reply -0.548

-- ask Retrieve abundance fitness measured for I28Y and print it.
-- reply -0.462

-- ask Fill in reported abundance fitness for this entry: E16W
-- reply -0.55

-- ask Respond only with abundance fitness recorded for L52V
-- reply -0.049

-- ask For I17D , write its abundance fitness.
-- reply -0.889

-- ask Specify abundance fitness for Q12M and stop.
-- reply -0.182

-- ask Fill in abundance fitness for record G45E
-- reply -1.21

-- ask Quote abundance fitness reported for V38K please.
-- reply -1.03

-- ask Output abundance fitness of P48H
-- reply -0.455
